Data origin: patent US20260226068A1

Below, each of the compounds is paired with its reported pIC50 value.
measurement target: IL-17A/A (Homo sapiens, UniProt Q16552)
Sequence (Q16552 24-155): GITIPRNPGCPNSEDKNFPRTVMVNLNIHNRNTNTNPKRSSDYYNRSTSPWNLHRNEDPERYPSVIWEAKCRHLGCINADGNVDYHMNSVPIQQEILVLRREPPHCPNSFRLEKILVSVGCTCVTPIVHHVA
test description: IL-17A/A HEK-Blue cell assay (SEAP reporter)
applied conditions: HEK-Blue IL-17A reporter cells, IL17A/A 5 ng/mL, 20 hours, SEAP read at A630; read-out: HEK-Blue IL17AA (IC50 for IL-17A/A inhibition)
Method: The HEK-Blue IL-17A reporter cell line (Fisher #NC 1408637) was used for cell-based IL-17A/A inhibition assays. Cells were grown and prepared for assays according to the manufacturer's instructions. […] Media from the cells is then added to a development reagent (Quanti-Blue Substrate, Fisher #NC971 1613), and read at A630. […]
pIC50: −log10 of the molar value.

[[record]]
compound = "CCn1nccc1C(=O)N[C@H](c1cn2nc(C[C@H]3C[C@@H](C(F)(F)F)CNC3=O)c(CN3CC(F)(F)C3)nc2n1)C1CCC(F)(F)CC1"
endpoint_label = "pIC50"
reading = "> 7.00"

[[record]]
compound = "CCn1nccc1C(=O)N[C@H](c1cn2nc(CC3C[C@@H](C(F)(F)F)CNC3=O)c(N3CCO[C@H](C)C3)nc2n1)[C@@H]1CCCC(F)(F)C1 (single isomer, unassigned) [Compound 122]"
endpoint_label = "pIC50"
reading = "> 7.00"

[[record]]
compound = "CCn1nccc1C(=O)N[C@H](c1cn2nc(CC3C[C@@H](C(F)(F)F)CNC3=O)c(N(C)C)nc2n1)C1CCC(F)(F)CC1 (single isomer, unassigned) [Compound 49]"
endpoint_label = "pIC50"
reading = "> 7.00"

[[record]]
compound = "CCn1ccc(C(=O)N[C@H](c2cn3nc(C[C@H]4C[C@@H](C(F)(F)F)CNC4=O)c(C4CCOCC4)nc3n2)C2CCC(F)(F)CC2)n1"
endpoint_label = "pIC50"
reading = "> 7.00"

[[record]]
compound = "CCn1nccc1C(=O)N[C@H](c1cn2nc(C[C@@H]3CCCNC3=O)c(C3CCOCC3)nc2n1)C1CCC(F)(F)CC1"
endpoint_label = "pIC50"
reading = "> 7.00"


Provide one value: measured pIC50 of CCn1nccc1C(=O)N[C@H](c1cn2nc(C[C@H]3C[C@@H](C(F)(F)F)CNC3=O)c(CNC)nc2n1)C1CCC(F)(F)CC1 6.00 to 7.00

Provide one value: measured pIC50 of CCn1nccc1C(=O)N[C@H](c1cn2nc(C[C@H]3C[C@@H](C(F)(F)F)CNC3=O)c(C(C)C)nc2n1)[C@@H]1CCCC(F)(F)C1 > 7.00

Provide one value: measured pIC50 of CC(C)c1nonc1C(=O)N[C@H](c1cn2nc(C[C@H]3C[C@@H](C(F)(F)F)CNC3=O)cnc2n1)C1CCC(F)(F)CC1 > 7.00

Provide one value: measured pIC50 of CCn1nccc1C(=O)N[C@H](c1cn2nc(CC3C[C@@H](C(F)(F)F)CNC3=O)c(N3CCO[C@@H](C)C3)nc2n1)[C@@H]1CCCC(F)(F)C1 (single isomer, unassigned) [Compound 207] > 7.00

Provide one value: measured pIC50 of CCn1nccc1C(=O)N[C@H](c1cn2nc(C[C@H]3C[C@@H](C(F)(F)F)CNC3=O)c(N3CC4CC(C3)N4C)nc2n1)C1CCC(F)(F)CC1 6.00 to 7.00
